targetEntity: KDR (Homo sapiens)
Construct: purchased Nanosyn (contract screening)
Sequence (P35968 20-1356): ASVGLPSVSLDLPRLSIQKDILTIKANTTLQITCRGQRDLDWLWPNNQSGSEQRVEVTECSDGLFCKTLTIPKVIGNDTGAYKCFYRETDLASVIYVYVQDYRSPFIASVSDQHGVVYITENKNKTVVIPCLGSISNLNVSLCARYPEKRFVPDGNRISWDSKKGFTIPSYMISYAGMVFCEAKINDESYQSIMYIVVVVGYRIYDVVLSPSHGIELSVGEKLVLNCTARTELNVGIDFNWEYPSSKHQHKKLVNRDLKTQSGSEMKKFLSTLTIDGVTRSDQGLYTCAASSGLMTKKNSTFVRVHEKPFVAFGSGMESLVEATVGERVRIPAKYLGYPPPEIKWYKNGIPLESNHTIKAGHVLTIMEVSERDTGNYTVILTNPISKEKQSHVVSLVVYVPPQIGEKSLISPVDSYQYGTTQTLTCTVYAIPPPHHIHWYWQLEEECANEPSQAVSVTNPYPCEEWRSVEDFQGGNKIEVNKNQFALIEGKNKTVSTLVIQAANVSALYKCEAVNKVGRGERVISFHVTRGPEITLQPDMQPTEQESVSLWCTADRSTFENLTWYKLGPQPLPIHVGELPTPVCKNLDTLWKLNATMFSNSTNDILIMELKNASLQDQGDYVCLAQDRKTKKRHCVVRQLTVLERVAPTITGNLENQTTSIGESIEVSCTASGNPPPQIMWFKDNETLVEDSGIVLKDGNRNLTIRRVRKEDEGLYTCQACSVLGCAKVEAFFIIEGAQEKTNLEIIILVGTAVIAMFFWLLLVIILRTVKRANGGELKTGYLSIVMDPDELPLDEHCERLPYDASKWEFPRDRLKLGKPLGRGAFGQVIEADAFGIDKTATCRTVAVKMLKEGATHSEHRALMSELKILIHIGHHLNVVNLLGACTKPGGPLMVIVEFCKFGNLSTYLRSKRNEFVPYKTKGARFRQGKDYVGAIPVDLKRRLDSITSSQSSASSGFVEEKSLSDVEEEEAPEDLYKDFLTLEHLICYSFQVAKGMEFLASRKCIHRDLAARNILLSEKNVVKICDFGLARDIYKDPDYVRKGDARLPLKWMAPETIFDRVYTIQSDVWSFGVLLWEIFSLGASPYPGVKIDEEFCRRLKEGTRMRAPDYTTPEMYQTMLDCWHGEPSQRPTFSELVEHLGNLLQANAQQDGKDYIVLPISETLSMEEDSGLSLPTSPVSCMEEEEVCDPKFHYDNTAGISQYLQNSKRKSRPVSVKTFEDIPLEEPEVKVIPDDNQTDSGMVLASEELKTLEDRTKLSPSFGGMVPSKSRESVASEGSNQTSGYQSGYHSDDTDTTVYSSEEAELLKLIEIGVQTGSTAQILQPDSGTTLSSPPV
testMethodNotes: Kinase panel enzymatic inhibition assay (Nanosyn)
Type: biochemical
experimentalContext: compound 5 μM; ATP at Km; 30-minute pre-incubation
Exercise: for every item that follows, state its recorded inhibition at 5 µM.

Q) State its inhibition at 5 µM for this compound: `CCOC(=O)Nc1cn2nc(Nc3cc(NC(=O)c4cc(S(C)(=O)=O)n(-c5ccc(F)cc5)n4)ccc3C)ccc2n1`
A) 80 to 89%

Q) State its inhibition at 5 µM for this compound: CCOC(=O)Nc1cn2nc(Nc3cc(NC(=O)c4cc([S+](C)[O-])n(-c5ccc(F)cc5)n4)ccc3C)ccc2n1 (stereo not shown)
A) < 79%

Q) State its inhibition at 5 µM for this compound: `Cc1ccc(NC(=O)c2cc(S(C)(=O)=O)n(-c3ccc(F)cc3)n2)cc1Nc1nccc(-c2cccnc2N)n1`
A) < 79%

Q) State its inhibition at 5 µM for this compound: `Cc1ccc(NC(=O)c2cc(S(C)(=O)=O)n(-c3ccc(F)cc3)n2)cc1C#Cc1cnc2cccnn12`
A) 90 to 94%

Q) State its inhibition at 5 µM for this compound: Cc1ccc(NC(=O)c2cc([S+](C)[O-])n(-c3ccc(F)cc3)n2)cc1C#Cc1cnc2cccnn12 (stereo not shown)
A) < 79%

Q) State its inhibition at 5 µM for this compound: Cc1ccc(NC(=O)c2cc([S+](C)[O-])n(-c3ccc(F)cc3)n2)cc1-c1cc(N2CCOCC2)c(=O)n(C)c1 (stereo not shown)
A) < 79%

Q) State its inhibition at 5 µM for this compound: Cc1ccc(NC(=O)c2cc([S+](C)[O-])n(-c3ccc(F)cc3)n2)cc1Nc1ccc2ncn(C)c(=O)c2c1 (stereo not shown)
A) < 79%
